TGT: h Src (Homo sapiens, UniProt P12931)
Sequence (P12931 whole entry): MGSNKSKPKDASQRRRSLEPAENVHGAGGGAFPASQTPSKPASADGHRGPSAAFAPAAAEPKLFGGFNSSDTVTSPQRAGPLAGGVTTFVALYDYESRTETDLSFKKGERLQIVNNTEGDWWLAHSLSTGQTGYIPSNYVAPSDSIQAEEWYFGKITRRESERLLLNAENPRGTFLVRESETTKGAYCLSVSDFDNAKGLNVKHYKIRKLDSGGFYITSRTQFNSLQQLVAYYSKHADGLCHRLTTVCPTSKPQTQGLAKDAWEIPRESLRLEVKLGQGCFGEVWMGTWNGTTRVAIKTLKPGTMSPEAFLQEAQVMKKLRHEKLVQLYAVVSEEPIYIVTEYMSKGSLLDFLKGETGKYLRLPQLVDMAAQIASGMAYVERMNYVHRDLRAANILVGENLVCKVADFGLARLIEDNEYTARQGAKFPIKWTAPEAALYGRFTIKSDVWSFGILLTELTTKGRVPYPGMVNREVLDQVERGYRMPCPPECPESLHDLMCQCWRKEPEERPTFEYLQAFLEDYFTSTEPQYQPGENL
PROTOCOL_NOTES: LC3000 Src assay (off-chip incubation mobility-shift kinase assay, Caliper LabChip)
Format: biochemical
ASSAY_CONDITIONS: ATP at KM apparent
Description: The screening and profiling experiments described here were performed using Caliper Life Sciences' proprietary LabChip™ technology. Caliper LC3000 and EZ Reader II instruments are widely used throughout the drug discovery process for assay development, primary screening, selectivity screening, generation of Structure-Activity Relationships (SARs) and Mechanism of Action (MOA) studies. […]
QUANTITY_MEASURED: IC50 (nM)
Numeric only. Scale: nM

Cc1cc(Nc2ncc3cc(-c4cc(OC(=O)c5ccccc5)ccc4Cl)ccc3n2)cc(N2CCN(CCO)CC2)c1 :: 11
Oc1ccc(Cl)c(-c2ccc3nc(Nc4ccncc4)nn3c2)c1 :: 73
COc1cc(Nc2nc3ccc(-c4cc(O)ccc4Cl)cn3n2)ccn1 :: 6

Task item: Which IC50 reading was recorded for the compound "OCc1ccc(Nc2nc3ccc(-c4cc(O)ccc4Cl)cn3n2)cc1CO" ?
Reply: 34

Task item: Which IC50 reading was recorded for the compound "[O-][N+]1(CCOc2ccc(Nc3nc4ccc(-c5cc(O)ccc5Cl)cn4n3)cc2)CCCC1" ?
Reply: 55

====

TGT: h Src (Homo sapiens, UniProt P12931)
PROTOCOL_NOTES: LC3000 Src assay (off-chip incubation mobility-shift kinase assay, Caliper LabChip)
Type: biochemical
ASSAY_CONDITIONS: ATP at KM apparent
Procedure: The screening and profiling experiments described here were performed using Caliper Life Sciences' proprietary LabChip™ technology. Caliper LC3000 and EZ Reader II instruments are widely used throughout the drug discovery process for assay development, primary screening, selectivity screening, generation of Structure-Activity Relationships (SARs) and Mechanism of Action (MOA) studies. […]
In this section, each of the compounds is paired with its reported IC50.
Numeric only. Scale: nM

Oc1ccc(Cl)c(-c2ccc3nc(Nc4ccnc(OCCN5CCCC5)c4)nn3c2)c1 :: 29
Oc1ccc(Cl)c(-c2ccc3nc(Nc4cncnc4)nn3c2)c1 :: 150
Oc1ccc(Cl)c(-c2ccc3nc(Nc4ccnc(O)c4)nn3c2)c1 :: 28
OCc1cc(Nc2nc3ccc(-c4cc(O)ccc4Cl)cn3n2)ccn1 :: 27
OCc1cc(CO)cc(Nc2nc3cc(-c4cc(O)ccc4Cl)ccn3n2)c1 :: 9
COc1cc2nc(Nc3ccc(OCCN4CCCC4)cc3)nn2cc1-c1cc(O)ccc1Cl :: 69

Turning to the following compound.
Task item: For the record "OCc1ccc(Nc2nc3ccc(-c4cc(O)ccc4Cl)cn3n2)cn1" , what value of IC50 is listed for h Src (Homo sapiens, UniProt P12931)?
Reply: 47

====

TGT: h Src (Homo sapiens)
PROTOCOL_NOTES: LC3000 Src assay (off-chip incubation mobility-shift kinase assay, Caliper LabChip)
Assay type: biochemical
ASSAY_CONDITIONS: ATP at KM apparent
QUANTITY_MEASURED: log10(IC50) (log10 of the value in nM)
Note the log scale: values are log10 of IC50 expressed in nM.

Oc1ccc(Cl)c(-c2ccc3nc(Nc4ccc(OCCN5CCCC5)cn4)nn3c2)c1 :: 2.00
OCCN1CCN(c2cc(Nc3nc4ccc(-c5cc(O)ccc5Cl)cn4n3)ccn2)CC1 :: 1.11
OCCn1cnc2ccc(Nc3nc4ccc(-c5cc(O)ccc5Cl)cn4n3)cc21 :: 0.85

Task item: Which log10(IC50) reading was recorded for the compound "Oc1ccc(Cl)c(-c2ccc3nc(Nc4cccnc4)nn3c2)c1" ?
Reply: 2.08

Task item: Which log10(IC50) reading was recorded for the compound "Cc1nc(Nc2nc3ccc(-c4cc(O)ccc4Cl)cn3n2)cc(N2CCN(CCO)CC2)n1" ?
Reply: 1.92

Task item: Which log10(IC50) reading was recorded for the compound "OCCn1cnc2cc(Nc3ncc4cc(-c5cc(O)ccc5Cl)ccc4n3)ccc21" ?
Reply: -0.30

Task item: Which log10(IC50) reading was recorded for the compound "Cc1cc(Nc2nc3ccc(-c4cc(O)ccc4Cl)cn3n2)cc(N2CCN(CCO)CC2)c1" ?
Reply: 0.48

Task item: Which log10(IC50) reading was recorded for the compound "OCc1cc(CO)cc(Nc2nc3ccc(-c4cc(O)ccc4Cl)cn3n2)c1" ?
Reply: 0.70

====

PROTOCOL_NOTES: Solubility in HPbCD 7% pH 5
Type: physicochemical
ASSAY_CONDITIONS: HPbCD 7% solution, aqueous with cosolvent or surfactant or cyclodextrin, read-out: Solubility HPbCD 7% pH 5 (mg/ml) measured
QUANTITY_MEASURED: solubility (mg/mL)
Numeric only. Scale: mg/mL

OCc1cc(CO)cc(Nc2nc3ccc(-c4cc(O)ccc4Cl)cn3n2)c1 [compound 5] :: 1.3

Turning to the following molecule.
Task item: Which solubility reading was recorded for the molecule OCCN1CCN(c2ccc(Nc3nc4ccc(-c5cc(O)ccc5Cl)cn4n3)cn2)CC1 [compound 10] ?
Reply: 5.69

====

TGT: h Src (Homo sapiens, UniProt P12931)
PROTOCOL_NOTES: LC3000 Src assay (off-chip incubation mobility-shift kinase assay, Caliper LabChip)
Type: biochemical
ASSAY_CONDITIONS: ATP at KM apparent
Procedure: The screening and profiling experiments described here were performed using Caliper Life Sciences' proprietary LabChip™ technology. Caliper LC3000 and EZ Reader II instruments are widely used throughout the drug discovery process for assay development, primary screening, selectivity screening, generation of Structure-Activity Relationships (SARs) and Mechanism of Action (MOA) studies. […]
QUANTITY_MEASURED: IC50 (nM)
Numeric only. Scale: nM

OCCN1CCN(c2cc(CO)cc(Nc3ncc4cc(-c5cc(O)ccc5Cl)ccc4n3)c2)CC1 [Compound 50] :: 0.2
COc1ccc(Nc2ncc3cc(-c4cc(O)ccc4Cl)ccc3n2)cn1 [Compound 40] :: 10

Task item: Which IC50 reading was recorded for the molecule Oc1ccc(Cl)c(-c2ccc3nc(Nc4ccc5cc[nH]c5c4)ncc3c2)c1 [Compound 42] ?
Reply: 100

====

TGT: h Src (Homo sapiens)
PROTOCOL_NOTES: LC3000 Src assay (off-chip incubation mobility-shift kinase assay, Caliper LabChip)
Assay type: biochemical
ASSAY_CONDITIONS: ATP at KM apparent
Threshold 10 nM: IC50 strictly smaller gives Criterion met, otherwise Criterion not met.

Task item: Decide: IC50 of "OCc1cncc(Nc2nc3ccc(-c4cc(O)ccc4Cl)cn3n2)c1" strictly below 10 nM?
Reply: Criterion not met

Task item: Decide: IC50 of "O=C1CCCN1CCOc1ccc(Nc2nc3ccc(-c4cc(O)ccc4Cl)cn3n2)cn1" strictly below 10 nM?
Reply: Criterion not met

Task item: Decide: IC50 of "OCc1cc(CO)cc(Nc2ncc3cc(-c4cc(O)ccc4Cl)ccc3n2)c1" strictly below 10 nM?
Reply: Criterion met

Task item: Decide: IC50 of "Oc1ccc(Cl)c(-c2ccc3nc(Nc4ccc5cc[nH]c5c4)nn3c2)c1" strictly below 10 nM?
Reply: Criterion not met

Task item: Decide: IC50 of "Oc1ccc(Cl)c(-c2ccc3nc(Nc4cccnc4)ncc3c2)c1" strictly below 10 nM?
Reply: Criterion met

Task item: Decide: IC50 of "COc1cc(Nc2nc3ccc(-c4cc(O)ccc4Cl)cn3n2)cc(OC)c1OC" strictly below 10 nM?
Reply: Criterion met

Task item: Decide: IC50 of "Oc1ccc(Cl)c(-c2ccc3nc(Nc4ccccn4)nn3c2)c1" strictly below 10 nM?
Reply: Criterion not met

Task item: Decide: IC50 of "OCc1cc(Nc2ncc3cc(-c4cc(O)ccc4Cl)ccc3n2)ccn1" strictly below 10 nM?
Reply: Criterion met

Task item: Decide: IC50 of "Oc1ccc(Cl)c(-c2ccc3nc(Nc4cncc(OCCN5CCCC5)c4)nn3c2)c1" strictly below 10 nM?
Reply: Criterion not met

Task item: Decide: IC50 of "COc1ccc(Nc2nc3ccc(-c4cc(O)ccc4Cl)cn3n2)cn1" strictly below 10 nM?
Reply: Criterion not met

Task item: Decide: IC50 of "Oc1ccc(Cl)c(-c2ccn3nc(Nc4cccnc4)nc3c2)c1" strictly below 10 nM?
Reply: Criterion not met

====

In this section, each of the compounds is paired with its reported log10 IC50.
TGT: h Src (Homo sapiens, UniProt P12931)
PROTOCOL_NOTES: LC3000 Src assay (off-chip incubation mobility-shift kinase assay, Caliper LabChip)
Type: biochemical
ASSAY_CONDITIONS: ATP at KM apparent
Note the log scale: values are log10 of IC50 expressed in nM.

Previously resolved entries follow.
OCc1cncc(Nc2ncc3cc(-c4cc(O)ccc4Cl)ccc3n2)c1 :: -0.40
COc1cc(Nc2ncc3cc(-c4cc(O)ccc4Cl)ccc3n2)cc(OC)c1OC :: -0.30
OCCN1CCN(c2cc(CO)cc(Nc3nc4ccc(-c5cc(O)ccc5Cl)cn4n3)c2)CC1 :: 0.00
Cc1cc(Nc2ncc3cc(-c4cc(O)ccc4Cl)ccc3n2)cc(N2CCN(CCO)CC2)c1 :: -0.10

Task item: Which log10 IC50 reading was recorded for the compound "OCCN1CCN(c2ccc(Nc3nc4ccc(-c5cc(O)ccc5Cl)cn4n3)cn2)CC1" ?
Reply: 1.15

Task item: Which log10 IC50 reading was recorded for the compound "Oc1ccc(Cl)c(-c2ccc3nc(Nc4ccc(OCCN5CCCC5)nc4)nn3c2)c1" ?
Reply: 1.36
